- test_system: human vasopressin V1a receptor (Homo sapiens)
- Sequence (P37288 whole entry): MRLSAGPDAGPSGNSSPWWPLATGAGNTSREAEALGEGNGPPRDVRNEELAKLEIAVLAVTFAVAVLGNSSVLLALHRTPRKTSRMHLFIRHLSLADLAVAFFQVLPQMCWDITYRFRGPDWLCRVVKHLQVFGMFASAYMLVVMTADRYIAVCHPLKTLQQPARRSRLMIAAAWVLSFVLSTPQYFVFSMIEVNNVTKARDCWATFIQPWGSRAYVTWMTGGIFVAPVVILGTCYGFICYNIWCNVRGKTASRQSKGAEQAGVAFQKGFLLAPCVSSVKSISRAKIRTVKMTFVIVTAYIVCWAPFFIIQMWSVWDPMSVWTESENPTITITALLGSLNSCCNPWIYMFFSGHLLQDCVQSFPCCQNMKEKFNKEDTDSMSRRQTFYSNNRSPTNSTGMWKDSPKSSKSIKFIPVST
- procedure_summary: Receptor binding study, [3H]AVP displacement on CHO cell membranes, human V1a
- experimental_parameters: [3H]AVP displacement, CHO cell membrane, 25° C., one hour; read-out: Human V1a Ki
experimental_readout: Ki (nM)

These solved cases illustrate the format of a correct answer.
>>> endpoint_value("CNc1ccc(-c2ccc(C(=O)N3CC[C@H](C)Nc4ccccc43)cc2OCCN2CCOCC2)cc1 [Example 74]")
0.24
>>> endpoint_value("CC(=O)Nc1cc(C(=O)N2CC[C@H](C)Nc3ccccc32)ccc1-c1ccc2[nH]ccc2c1 [Example 17]")
0.13

I = C[C@H]1CCN(C(=O)c2ccc(-c3ccc4[nH]ccc4c3)c(OCCCN(C)C)c2)c2ccccc2N1 [Example 78]
II = CC(=O)Nc1cc(C(=O)N2CC[C@@H](C)Nc3ccccc32)ccc1-c1ccc2[nH]ccc2c1 [Example 16]
Thinking about recorded Ki values, which is higher, I or II ? Write down the label of the entry you select.
II
(II: 0.33 nM, I: 0.11 nM)
